# Run description: isobaric coefficient of expansion
# Study conditions: 308.15 K; 45000 kPa; Liquid; Microcalorimeter
Endpoint label: isobaric coefficient of expansion

CCCCCC[n+]1ccn(C)c1.O=S(=O)([N-]S(=O)(=O)C(F)(F)F)C(F)(F)F; 0.000585 1/K

List isobaric coefficient of expansion for every entry below, keeping the order given.
1. CCCCCCCC[n+]1ccn(C)c1.F[B-](F)(F)F [1-methyl-3-octylimidazolium tetrafluoroborate]
2. CCn1cc[n+](C)c1.F[B-](F)(F)F [1-ethyl-3-methylimidazolium tetrafluoroborate]
3. CCCCCCn1cc[n+](C)c1.F[B-](F)(F)F [1-hexyl-3-methylimidazolium tetrafluoroborate]

Response:
0.000545 1/K
0.000542 1/K
0.000545 1/K

List isobaric coefficient of expansion for every entry below, keeping the order given.
1. CCCC[n+]1cccc(C)c1.F[B-](F)(F)F [1-butyl-3-methylpyridinium tetrafluoroborate]
2. CCn1cc[n+](C)c1.O=S(=O)([N-]S(=O)(=O)C(F)(F)F)C(F)(F)F

Response:
0.000545 1/K
0.000589 1/K

###

For each record, write down the corresponding isobaric coefficient of expansion.
# Run description: isobaric coefficient of expansion
# Study conditions: 318.15 K; 20000 kPa; Liquid; Microcalorimeter

CCn1cc[n+](C)c1.F[B-](F)(F)F [1-ethyl-3-methylimidazolium tetrafluoroborate]; 0.000569 1/K
CCCCCCCC[n+]1ccn(C)c1.F[B-](F)(F)F [1-methyl-3-octylimidazolium tetrafluoroborate]; 0.000573 1/K
CCCCCCn1cc[n+](C)c1.F[B-](F)(F)F [1-hexyl-3-methylimidazolium tetrafluoroborate]; 0.000573 1/K

List isobaric coefficient of expansion for every entry below, keeping the order given.
1. CCn1cc[n+](C)c1.O=S(=O)([N-]S(=O)(=O)C(F)(F)F)C(F)(F)F
2. CCCC[n+]1cccc(C)c1.F[B-](F)(F)F [1-butyl-3-methylpyridinium tetrafluoroborate]
3. CCCCCC[n+]1ccn(C)c1.O=S(=O)([N-]S(=O)(=O)C(F)(F)F)C(F)(F)F

Response:
1. 0.000623 1/K
2. 0.000565 1/K
3. 0.000623 1/K

###

# Run description: isobaric coefficient of expansion
# Study conditions: 338.15 K; 40000 kPa; Liquid; Microcalorimeter
Endpoint label: isobaric coefficient of expansion

Example results:
CCCCCCn1cc[n+](C)c1.F[B-](F)(F)F [1-hexyl-3-methylimidazolium tetrafluoroborate]; 0.000538 1/K
CCCC[n+]1cccc(C)c1.F[B-](F)(F)F [1-butyl-3-methylpyridinium tetrafluoroborate]; 0.000536 1/K
CCn1cc[n+](C)c1.F[B-](F)(F)F [1-ethyl-3-methylimidazolium tetrafluoroborate]; 0.000534 1/K

List isobaric coefficient of expansion for every entry below, keeping the order given.
1. CCCCCC[n+]1ccn(C)c1.O=S(=O)([N-]S(=O)(=O)C(F)(F)F)C(F)(F)F
2. CCn1cc[n+](C)c1.O=S(=O)([N-]S(=O)(=O)C(F)(F)F)C(F)(F)F
3. CCCCCCCC[n+]1ccn(C)c1.F[B-](F)(F)F [1-methyl-3-octylimidazolium tetrafluoroborate]

Response:
0.00058 1/K
0.000582 1/K
0.000538 1/K

###

For each record, write down the corresponding isobaric coefficient of expansion.
# Run description: isobaric coefficient of expansion
# Study conditions: 288.15 K; 15000 kPa; Liquid; Microcalorimeter

CCn1cc[n+](C)c1.O=S(=O)([N-]S(=O)(=O)C(F)(F)F)C(F)(F)F; 0.000646 1/K

List isobaric coefficient of expansion for every entry below, keeping the order given.
1. CCCCCCCC[n+]1ccn(C)c1.F[B-](F)(F)F [1-methyl-3-octylimidazolium tetrafluoroborate]
2. CCCCCC[n+]1ccn(C)c1.O=S(=O)([N-]S(=O)(=O)C(F)(F)F)C(F)(F)F
3. CCn1cc[n+](C)c1.F[B-](F)(F)F [1-ethyl-3-methylimidazolium tetrafluoroborate]

Response:
1. 0.0006 1/K
2. 0.000647 1/K
3. 0.000591 1/K

List isobaric coefficient of expansion for every entry below, keeping the order given.
1. CCCCCCn1cc[n+](C)c1.F[B-](F)(F)F [1-hexyl-3-methylimidazolium tetrafluoroborate]
2. CCCC[n+]1cccc(C)c1.F[B-](F)(F)F [1-butyl-3-methylpyridinium tetrafluoroborate]

Response:
1. 0.0006 1/K
2. 0.000588 1/K

Data provenance is the NIST ThermoML archive (doi:10.1021/je900482x).
